Values were extracted from PubChem BioAssay AID256.

system: CD2F1 mice, L1210 leukemia ip, survival T/C; experiment: NCI In Vivo Anticancer Drug Screen. Data for tumor model L1210 Leukemia (intraperitoneal) in CD2F1 (CDF1) mice; details: endpoint: mean survival time; dose: 200.0 mg/kg/injection; schedule: Q01DX001 (ip); vehicle: saline sonified; higher = longer survival
Inconclusive results and toxic doses are left out.
readout name: T/C

> print(dat)
                                chem.smiles  readout.name       meas.value
1                      CCN(CC)c1cc(Cl)ccc1C           T/C  95 % of control
2  COC(=O)c1ccc(OCc2ccccc2)c([N+](=O)[O-])c1           T/C  96 % of control
3                        CS(=O)(=O)c1ccccn1           T/C  97 % of control
4  CN=C(NC)N/N=C(/c1ccc(Br)cc1)c1ccc(C(F)(F)F)cc1           T/C  93 % of control

====

test system: CD2F1 mice, L1210 leukemia ip, survival T/C; assay: NCI In Vivo Anticancer Drug Screen. Data for tumor model L1210 Leukemia (intraperitoneal) in CD2F1 (CDF1) mice; conditions: endpoint: mean survival time; dose: 100.0 mg/kg/injection; schedule: Q04DX003 (ip); vehicle: Klucel (hydroxypropylcellulose) (HPC); higher = longer survival
Inconclusive results and toxic doses are left out.
Examples of compounds with documented T/C follow.
readout name: T/C

> print(dat)
                                chem.smiles        meas.value
1      N/C(=N/N=C/c1ccc(O)cc1)N[N+](=O)[O-]   92 % of control
2                      COC(=O)c1ccc(C=O)cc1   87 % of control
3                  Cc1ccc(/C=C2\CCOC2=O)cc1  102 % of control
4               CC(=O)CC(=O)OCOC(=O)CC(C)=O  102 % of control
5  O=[N+]([O-])c1ccc(N/N=C/c2ccnc3ccccc23)cc1   89 % of control
6          CN(C)c1ccc(/C=C2/CCCC/C2=N/O)cc1  102 % of control
7                      CCCCOC(=O)c1ccccc1Cl  100 % of control

====

test system: CD2F1 mice, L1210 leukemia ip, survival T/C; experiment: NCI In Vivo Anticancer Drug Screen. Data for tumor model L1210 Leukemia (intraperitoneal) in CD2F1 (CDF1) mice; conditions: endpoint: mean survival time; dose: 100.0 mg/kg/injection; schedule: Q01DX009 (ip); vehicle: saline with Tween-80; higher = longer survival
Inconclusive results and toxic doses are left out.
Each entry below carries its recorded T/C.
readout name: T/C

> print(dat)
                                    molecule  readout.name        meas.value
 1                      Nn1c(=O)[nH][nH]c1=O           T/C   96 % of control
 2  Cc1ccc(/C=N/NC(=O)CNC(=O)Nc2cccc([N+](=O)[O-])c2)cc1           T/C   88 % of control
 3                     Cc1ccc(NC(=O)CCl)cc1C           T/C  100 % of control
 4  O=C1C2CCCC3CCCC(C(=O)N1NC1CCCCC1)C32 (stereo unspecified)           T/C   88 % of control
 5  Cc1cccc2c1CCC(OC(=O)c1cc([N+](=O)[O-])cc([N+](=O)[O-])c1)C2 (stereo unspecified)           T/C   92 % of control
 6  Cc1ccc([N+](=O)[O-])cc1NC(=O)NNC(=O)CNC(=O)NCc1ccco1           T/C   91 % of control
 7  O=C(Cc1nc2ccccc2[nH]c1=O)N/N=C/c1ccc2c(c1)CCC2           T/C   92 % of control
 8  COc1cc(C(=O)NNC(=O)c2ccc(Cl)cc2)cc(OC)c1OC           T/C   94 % of control
 9             O=C(O)c1cccc2[nH][nH]c(=O)c12           T/C  101 % of control
10                 O=C1NC(=O)c2cccc3cccc1c23           T/C  100 % of control
11         C/C(=N/NC(=O)c1ccccc1)c1ccc(O)cc1           T/C   96 % of control
12              CC(C)(C)c1ccccc1O[Si](C)(C)C           T/C   94 % of control
13                           CCOc1cccc(Cl)n1           T/C   94 % of control
14                   COC(=O)c1cc2ccccc2cc1OC           T/C  102 % of control
15  COc1ccc(/C=N/NC(=O)CNC(=O)Nc2ccc(F)cc2)cc1OC           T/C   92 % of control
16        COc1cc(OC)c(C(=O)c2ccccc2N)c(OC)c1           T/C  101 % of control
17                          CSc1nc(N)cc(N)n1           T/C   98 % of control
18  OC1CCC(CC2CCCCC2)CC1 (stereo unspecified)           T/C   95 % of control
19  COc1ccc(CCNC(=O)Cc2ccc3cc(OC)c(OC)cc3c2)cc1OC           T/C   91 % of control
20  CC(Br)C(=O)OC1C=CCCC1 (stereo unspecified)           T/C  101 % of control
21     CCCC(O)C1CCCCC1O (stereo unspecified)           T/C   92 % of control
22           O=C1CCCN1c1ccc([N+](=O)[O-])cc1           T/C   98 % of control
23  CC1=CCC(C(C)(C)c2ccc(O)cc2)CC1 (stereo unspecified)           T/C   98 % of control
24  Nc1nc(N)c(N=Nc2ccc(S(=O)(=O)c3ccc(N=Nc4c(N)nc(N)[nH]c4=O)cc3)cc2)c(=O)[nH]1           T/C  102 % of control
25  CC(O)(CCc1ccccc1)CC(O)(C(F)(F)F)C(F)(F)F (stereo unspecified)           T/C   97 % of control
26  O=[N+]([O-])c1ccc2ccccc2c1-c1c([N+](=O)[O-])ccc2ccccc12           T/C   90 % of control
